target: Cholecystokinin receptor type A (Cavia porcellus); experiment: Binding affinity for Cholecystokinin type A receptor in Guinea-Pig gall bladder; assay type: tissue-based
Please use criterion met whenever pKB is not below 6, and criterion not met whenever it is.

Lookup: Item "O=C(O)C[C@H](NS(=O)(=O)Cc1ccc2ccccc2c1)C(=O)NCCc1ccccc1" with pKB of 6 or above?
Found: criterion not met

Lookup: Note, next up: "COc1ccc2cc(S(=O)(=O)N[C@@H](CC(=O)O)C(=O)NCCc3ccccc3)ccc2c1Cl"
Found: criterion met

Lookup: Note, next up: "O=C(O)C[C@H](NS(=O)(=O)c1ccc2ccccc2c1)C(=O)NCCCc1ccccc1"
Found: criterion met

Lookup: Note, next up: "O=C(O)C[C@H](NS(=O)(=O)/C=C/c1ccccc1)C(=O)NCCc1ccccc1"
Found: criterion met

Lookup: Note, next up: "NS(=O)(=O)c1ccc(CCNC(=O)[C@H](CC(=O)O)NS(=O)(=O)c2ccc3ccccc3c2)cc1"
Found: criterion not met

Lookup: Note, next up: "O=C(O)C[C@H](NS(=O)(=O)c1ccc2ccccc2c1)C(=O)NCCc1ccc(F)cc1"
Found: criterion met

Lookup: Note, next up: "COc1cc2cc(S(=O)(=O)N[C@@H](CC(=O)O)C(=O)NCCc3ccccc3)ccc2c(Cl)c1OC"
Found: criterion met

Lookup: Note, next up: "COc1ccc2cc(S(=O)(=O)N[C@@H](CC(=O)O)C(=O)NCCc3ccccc3)ccc2c1"
Found: criterion met

Lookup: Note, next up: "O=C(O)C[C@H](NS(=O)(=O)CCc1ccccc1)C(=O)NCCc1ccccc1"
Found: criterion not met

Lookup: Note, next up: "O=C(O)C[C@H](NS(=O)(=O)c1ccc(Cl)c(Cl)c1)C(=O)NCCc1ccccc1"
Found: criterion not met

====

molecular target: Gastrin/cholecystokinin type B receptor (Mus musculus) (UniProt P56481); assay: Efficiency against CCKB/Gastrin receptor for stimulation of gastric acid secretion in lumen-perfused mouse stomach: activity measured as midpoint agonist concentration-effect curve parameter; assay type: functional, tissue-based
Sequence (P56481 whole entry, the tested form may be a part): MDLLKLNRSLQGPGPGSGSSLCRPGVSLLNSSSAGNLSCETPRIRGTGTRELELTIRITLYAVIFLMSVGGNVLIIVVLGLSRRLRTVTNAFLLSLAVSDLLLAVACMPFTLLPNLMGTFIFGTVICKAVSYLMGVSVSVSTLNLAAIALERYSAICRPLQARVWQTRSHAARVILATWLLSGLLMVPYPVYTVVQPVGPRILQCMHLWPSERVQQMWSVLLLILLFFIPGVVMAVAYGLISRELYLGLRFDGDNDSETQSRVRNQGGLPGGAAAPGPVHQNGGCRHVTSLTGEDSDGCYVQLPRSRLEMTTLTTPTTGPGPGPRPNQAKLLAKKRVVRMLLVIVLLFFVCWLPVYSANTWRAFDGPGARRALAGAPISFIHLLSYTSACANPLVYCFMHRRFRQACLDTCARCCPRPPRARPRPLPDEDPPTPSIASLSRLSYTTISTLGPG
Residues, ends and D or L forms follow the SMILES beside them. *: point of attachment. Boc = CC(C)(C)OC(=O)*
Please use True whenever p[A50] is not below 6, and False whenever it is.

Lookup: Item CC(C)(C)OC(=O)N[C@@H](CC(=O)O)C(=O)N[C@@H](Cc1ccccc1)C(N)=O (Boc-Asp-Phe-NH2) with p[A50] of 6 or above?
Found: False

Lookup: Note, next up: "NC(=O)[C@H](Cc1ccccc1)NC(=O)[C@H](CC(=O)O)NS(=O)(=O)c1ccc2ccccc2c1"
Found: False

Lookup: Note, next up: "NC(=O)[C@H](Cc1ccccc1)NC(=O)[C@H](CC(=O)O)NS(=O)(=O)c1cccc2ccccc12"
Found: False

Lookup: Note, next up: CC(C)C[C@H](NC(=O)[C@H](Cc1c[nH]c2ccccc12)NC(=O)OC(C)(C)C)C(=O)N[C@@H](CC(=O)O)C(=O)N[C@@H](Cc1ccccc1)C(N)=O (Boc-WLDF-NH2)
Found: True

Lookup: Note, next up: "NC(=O)[C@H](Cc1ccccc1)NC(=O)[C@H](CC(=O)O)NC(=O)c1ccc2ccccc2c1"
Found: False

====

target: Gastrin/cholecystokinin type B receptor (Mus musculus) (UniProt P56481); test: Maximum acid secretion obtained at 10e -5 M: values expressed as percentage of the maximum response to pentagastrin (n=4/6) in mouse stomach at CCKB/Gastrin receptor; type: functional, tissue-based
Residues, ends and D or L forms follow the SMILES beside them. *: point of attachment. Boc = CC(C)(C)OC(=O)*
Observable: Max response (%)
Provide only the numeric value, understood in %.

Lookup: Item under review: "NC(=O)[C@H](Cc1ccccc1)NC(=O)[C@H](CC(=O)O)NS(=O)(=O)c1ccc2ccccc2c1" . Reported Max response?
Found: 96

Lookup: Note, next up: "NC(=O)[C@H](Cc1ccccc1)NC(=O)[C@H](CC(=O)O)NS(=O)(=O)c1cccc2ccccc12"
Found: 30

Lookup: Note, next up: CC(C)(C)OC(=O)N[C@@H](CC(=O)O)C(=O)N[C@@H](Cc1ccccc1)C(N)=O (Boc-Asp-Phe-NH2)
Found: 100

Lookup: Note, next up: "NC(=O)[C@H](Cc1ccccc1)NC(=O)[C@H](CC(=O)O)NC(=O)c1ccc2ccccc2c1"
Found: 100

Lookup: Note, next up: CC(C)C[C@H](NC(=O)[C@H](Cc1c[nH]c2ccccc12)NC(=O)OC(C)(C)C)C(=O)N[C@@H](CC(=O)O)C(=O)N[C@@H](Cc1ccccc1)C(N)=O (Boc-WLDF-NH2)
Found: 100

====

Task for the reader: assign each of the following molecules its reported pKB.
molecular target: UniProtKB Q63931; test: Binding affinity for Cholecystokinin type A receptor in Guinea-Pig gall bladder; type: tissue-based
Sequence (Q63931 whole entry): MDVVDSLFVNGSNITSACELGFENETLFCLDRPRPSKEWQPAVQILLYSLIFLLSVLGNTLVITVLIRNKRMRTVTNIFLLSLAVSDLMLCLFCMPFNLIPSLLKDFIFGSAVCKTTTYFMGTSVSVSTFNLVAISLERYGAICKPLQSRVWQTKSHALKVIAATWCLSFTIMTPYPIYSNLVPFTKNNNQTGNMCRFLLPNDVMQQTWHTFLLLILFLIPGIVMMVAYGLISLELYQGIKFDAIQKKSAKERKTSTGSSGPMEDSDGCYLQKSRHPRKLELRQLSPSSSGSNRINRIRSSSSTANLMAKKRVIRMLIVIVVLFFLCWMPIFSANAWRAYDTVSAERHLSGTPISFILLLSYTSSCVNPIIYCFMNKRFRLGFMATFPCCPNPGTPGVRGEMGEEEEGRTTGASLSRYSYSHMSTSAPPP
# output: bare number, no unit

Lookup: Request - read-out pKB | tested on UniProtKB Q63931 | molecule "O=C(O)C[C@@H](NS(=O)(=O)c1ccc2ccccc2c1)C(=O)NCCc1ccccc1"
Found: 5.9

Lookup: Note, next up: "COc1ccc(CCNC(=O)[C@H](CC(=O)O)NS(=O)(=O)c2ccc3ccccc3c2)cc1"
Found: 6

Lookup: Note, next up: "O=C(O)CC[C@H](NS(=O)(=O)c1ccc2ccccc2c1)C(=O)NCCc1ccccc1"
Found: 6.1
